format: in vivo, human; conditions: human, plasma, iv, 3 mg/kg
Starred links: 1 amine or outer side, 2 acyl side, 3 side chain; linkers in the order of their positions; H or OH if unused. Positions of bridges follow the written chain, without caps; N, C: chain ends. Non-standard residues stand in square brackets, D forms with d. Residues, ends and D or L forms follow the SMILES beside them. *: point of attachment. pTerphenylCO(4''-OnC5H11) = CCCCCOc1ccc(-c2ccc(-c3ccc(C(=O)*)cc3)cc2)cc1; Orn(4R-OH,5R-OH) = O=C([C@H](C[C@@H](O)[C@@H](O)N[*:3])N[*:1])[*:2]; hTyr(3S-OH,4S-OH) = N[C@H](C(=O)O)[C@H](O)[C@@H](O)c1ccc(O)cc1; Pro(3S-OH,4S-Me) = C[C@H]1CN[C@H](C(=O)O)[C@H]1O; Hyp = O=C(O)[C@@H]1C[C@@H](O)CN1
measured.quantity: Cmax
Kindly format the answer as number then unit.

stdin: Consider the molecule CCCCCOc1ccc(-c2ccc(-c3ccc(C(=O)N[C@H]4C[C@@H](O)[C@@H](O)NC(=O)[C@@H]5[C@@H](O)[C@@H](C)CN5C(=O)[C@H]([C@@H](C)O)NC(=O)[C@H]([C@H](O)[C@@H](O)c5ccc(O)cc5)NC(=O)[C@@H]5C[C@@H](O)CN5C(=O)[C@H]([C@@H](C)O)NC4=O)cc3)cc2)cc1 [anidulafungin, Anidulafungin] ({pTerphenylCO(4''-OnC5H11)}-[Orn(4R-OH,5R-OH)]T[Hyp][hTyr(3S-OH,4S-OH)]T[Pro(3S-OH,4S-Me)]; lactam 1-C) and give its measured Cmax.
stdout: 5000 ng/mL
